# targetSystem: ENPP-1, MDA-MB-231 cells (Homo sapiens, UniProt P22413)
# Sequence (P22413 1-925): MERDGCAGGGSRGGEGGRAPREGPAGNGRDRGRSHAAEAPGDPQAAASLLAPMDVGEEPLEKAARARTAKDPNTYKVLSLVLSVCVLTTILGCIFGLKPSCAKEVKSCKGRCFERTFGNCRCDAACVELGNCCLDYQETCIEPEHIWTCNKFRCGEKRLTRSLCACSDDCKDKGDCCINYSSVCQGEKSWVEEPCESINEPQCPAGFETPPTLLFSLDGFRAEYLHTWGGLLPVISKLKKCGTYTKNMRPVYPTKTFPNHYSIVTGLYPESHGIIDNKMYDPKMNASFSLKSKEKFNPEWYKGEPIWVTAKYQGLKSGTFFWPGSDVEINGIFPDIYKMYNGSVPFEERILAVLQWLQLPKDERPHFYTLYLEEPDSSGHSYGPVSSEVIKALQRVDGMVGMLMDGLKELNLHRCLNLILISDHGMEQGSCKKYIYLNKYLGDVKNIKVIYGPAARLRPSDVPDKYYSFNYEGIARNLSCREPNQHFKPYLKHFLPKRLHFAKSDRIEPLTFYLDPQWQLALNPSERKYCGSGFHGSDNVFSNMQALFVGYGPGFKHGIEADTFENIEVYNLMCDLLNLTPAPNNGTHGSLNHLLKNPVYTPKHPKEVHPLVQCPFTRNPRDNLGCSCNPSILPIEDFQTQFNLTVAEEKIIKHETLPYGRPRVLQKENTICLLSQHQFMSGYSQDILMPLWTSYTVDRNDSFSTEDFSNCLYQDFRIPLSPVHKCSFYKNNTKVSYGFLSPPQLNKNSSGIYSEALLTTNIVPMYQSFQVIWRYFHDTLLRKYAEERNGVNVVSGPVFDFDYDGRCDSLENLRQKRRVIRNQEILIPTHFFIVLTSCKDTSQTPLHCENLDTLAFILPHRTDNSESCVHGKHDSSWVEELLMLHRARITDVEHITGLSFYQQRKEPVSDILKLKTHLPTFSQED
# assayName: cell-based
# conditionSet: MDA-MB-231, read-out: % Inhibition (at 20 μM)
# Experimental: ENPP-1 were mainly expressed on the surface of cell membrane where it hydrolytes 2′3′-cGAMP to generate 5′-GMP and 5′-AMP. ENPP-1 also has the ability to hydrolyzes artificial phosphoric acid ester TMP-pNP to nucleotide-5′-monophosphate and p-nitrophcnol there, which is a chromogenic product. […] The IC50 values for percent inhibition versus compound concentration are determined by fitting the inhibition curves using a four-parameter variable slope model in GraphPad Prism® 8.
readout: inhibition at 20 µM (%)

COc1ccc2ncc3ncn(Cc4ccc(S(N)(=O)=O)cc4)c3c2c1: 66
COc1ccc2c(ncc3nc(C)n(Cc4ccc(S(=O)(=O)NC(C)=O)cn4)c32)n1: 65
COc1ccc2c(ncc3cnn(Cc4ccc(S(N)(=O)=O)cn4)c32)n1 [Compound 135a]: 88
COc1ccc2c(ncc3cnn(Cc4ccc(S(N)(=O)=O)c(F)c4)c32)n1 [Compound 122a]: 74
